Attribution: the supplement of paper PMC13207355

# Tested on: E28 (patient-derived glioblastoma stem cells of classical subtype);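 also: nuclei counted by high-content imaging of Hoechst-stained cells in laminin-coated 384-well plates, relative to 0.1% DMSO vehicle wells, with staurosporine as cell-death control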
# procedureText: surviving fraction (nuclei count normalised to DMSO); higher = more cells surviving (less toxic)
# measurementContext: 111.1 nM; exposure time: 72 h
Structures can show the parent of a compound that is named as a salt.
Entries are grouped by surviving fraction into these classes: low-valued = under 0.9, mid-valued = from 0.9 up to 1, high-valued = 1 and over

Some solved entries appear below for comparison.
compound	assignedLabel
O=c1[nH]c(=O)n([C@H]2C[C@H](O)[C@@H](CO)O2)cc1I [Idoxuridine]	high-valued
Clc1ccc(COC(Cn2ccnc2)c2ccc(Cl)cc2Cl)cc1 (configuration not stated) [Econazole nitrate]	mid-valued
O=C(CCBr)N1CCN(C(=O)CCBr)CC1 [Pipobroman]	mid-valued
CCN(CC)Cc1ccc(C(=O)N(CCc2ccccc2OC)[C@@H]2CCNC2)cc1	high-valued
NCCNc1ccc(NCCN)c2c1C(=O)c1ccncc1C2=O [Pixantrone dimaleate]	low-valued

Form field 'band' for N=C(N)NCc1cccc(I)c1 [Iobenguane sulfate]
high-valued

Form field 'band' for Cc1c(-c2ccc(-c3ccccc3F)cc2)nc2ccc(F)cc2c1C(=O)O [Brequinar sodium salt hydrate]
low-valued

Form field 'band' for Clc1ccc(C(Cn2ccnc2)OCc2ccsc2Cl)c(Cl)c1 (configuration not stated) [Tioconazole]
high-valued

Form field 'band' for Cc1cc(Nc2cc(N3CCN(C)CC3)nc(Sc3ccc(NC(=O)C4CC4)cc3)n2)n[nH]1 [Tozasertib]
low-valued

Form field 'band' for c1ccc2c(c1)[I+]c1ccccc1-2 [Diphenyleneiodonium chloride]
low-valued

Form field 'band' for COc1ccc([C@@H]2CC(=O)c3c(O)cc(O[C@@H]4O[C@H](CO[C@@H]5O[C@@H](C)[C@H](O)[C@@H](O)[C@H]5O)[C@@H](O)[C@H](O)[C@H]4O)cc3O2)cc1O [Hesperidin]
mid-valued
